// data source = PubChem BioAssay (NCATS)

- protocol details: qHTS for Inhibitors of the Functional Ribonucleoprotein Complex (vRNP) of Lassa (LASV) Arenavirus: Viability assay - alamar blue signal for LASV Primary Screen (AID 1347083); further: nearly all actives have a fitted effect of over 80% in size
- run parameters: cell viability, alamar blue fluorescence (LASV minigenome counter-screen); series mostly up to 57.5 µM
Inconclusive results are not listed. Calls of active or inactive are those of the source. The call rests on the fitted dose curve; tested in HEK293 reporter line.
parameter measured: activity change, negative = reduced viability

O=C1C(c2[nH]c3ccccc3c2O)=Nc2ccccc21 :: inactive
CCCCNc1ccc(C(=O)OCCN(C)C)cc1 :: inactive
O=C(NCC1CN(c2ccc(N3CCOCC3=O)cc2)C(=O)O1)c1ccc(Cl)s1 (stereo not drawn) :: inactive

---

- System: DIV17
- protocol details: qHTS profiling for inhibitors of Plasmodium falciparum proliferation (AID 504749); further: nearly all actives have a fitted effect of over 60% in size
- run parameters: P. falciparum in erythrocytes, SYBR Green DNA, 72 h; series mostly up to 28.7 µM
Records with an inconclusive call do not appear. Calls of active or inactive are those of the source. The call rests on the fitted dose curve; in most records, active means well fitted inhibition curve with a large enough effect; inconclusive means small, poorly fitted or top-dose-only effect; inactive means flat fitted curve, though single readings scatter.
Pick from True = active, False = inactive when you respond.

Could you kindly confirm the outcome this assay logged for C[N+]1(CCC(C(N)=O)(c2ccccc2)c2ccccc2)CCCCC1 ? False

Called result for C#C[C@]1(O)CC[C@H]2[C@@H]3CCC4=CC(=O)CCC4=C3C=C[C@@]21CC True

Assay outcome for OC(O)C(Cl)(Cl)Cl : what was it? False

Status in this test for CNC(=O)NC(O)C(Cl)(Cl)Cl (stereo not given) ? False

Please indicate how the test categorized CN1C(=O)[C@@H](NC(=O)c2cc3ccccc3[nH]2)N=C(c2ccccc2)c2ccccc21 . True

For this compound, state the assay outcome: Clc1ccc(CO/N=C(\Cn2ccnc2)c2ccc(Cl)cc2Cl)c(Cl)c1 True

Look up the recorded call for Cc1ccc(N=CN(C)C=Nc2ccc(C)cc2C)c(C)c1 in this test. False

Call for entry CC(C)[N+](C)(CCC(C(N)=O)(c1ccccc1)c1ccccc1)C(C)C : False

Write down the call the test reported for this compound. Item: CC(C)(O)C(Cl)(Cl)Cl True

Recorded test call requested for COC(=O)C1=CCCN(C)C1 False

Call for entry C[N+](C)(C)CCOC(=O)C(O)(c1ccccc1)c1ccccc1 : False

What outcome does the record of this test show for NCc1cccnc1 ? False

Short answer needed: outcome of this test for CCS(=O)(=O)C(C)(C)S(=O)(=O)CC ? False

Which outcome was entered for the compound CN1C(=O)CN=C(c2ccccc2)c2cc([N+](=O)[O-])ccc21 in this test? False

Hey, what did the test say about Cc1ncc2n1-c1ccc(Cl)cc1C(c1ccccc1F)=NC2 ? False

---

- Tested on: CP237
- protocol details: qHTS profiling for inhibitors of Plasmodium falciparum proliferation (AID 504749); further: nearly all actives have a fitted effect of over 60% in size
- run parameters: P. falciparum in erythrocytes, SYBR Green DNA, 72 h; series mostly up to 28.7 µM
Inconclusive results are not listed. Activity calls are given as the source filed them. The call rests on the fitted dose curve; in most records, active means well fitted inhibition curve with a large enough effect; inconclusive means small, poorly fitted or top-dose-only effect; inactive means flat fitted curve, though single readings scatter.
Answer with one of the outcomes yes (1) (active), no (0) (inactive)

GET /call?item= NC(=O)CN1CCCC1=O returns the recorded outcome of this test. no (0)

Status in this test for CN(C)C(=S)SSC(=S)N(C)C ? yes (1)

Answer briefly: the call reported for COc1ccc(C(=O)N2CCCC2=O)cc1 in this assay. no (0)

Any idea what this test logged for C[C@]12CC[C@H]3[C@@H](CC=C4C[C@@H](O)CC[C@@]43C)[C@@H]1CC[C@@H]2O ? no (0)

Assay result, entry Oc1ccc2[nH]cc(CCCCN3CC=C(c4ccccc4)CC3)c2c1 — outcome? yes (1)
